Molecular target: ABAP1 (Hordeum vulgare)
Sequence (Q9LLX3 entry or part of it): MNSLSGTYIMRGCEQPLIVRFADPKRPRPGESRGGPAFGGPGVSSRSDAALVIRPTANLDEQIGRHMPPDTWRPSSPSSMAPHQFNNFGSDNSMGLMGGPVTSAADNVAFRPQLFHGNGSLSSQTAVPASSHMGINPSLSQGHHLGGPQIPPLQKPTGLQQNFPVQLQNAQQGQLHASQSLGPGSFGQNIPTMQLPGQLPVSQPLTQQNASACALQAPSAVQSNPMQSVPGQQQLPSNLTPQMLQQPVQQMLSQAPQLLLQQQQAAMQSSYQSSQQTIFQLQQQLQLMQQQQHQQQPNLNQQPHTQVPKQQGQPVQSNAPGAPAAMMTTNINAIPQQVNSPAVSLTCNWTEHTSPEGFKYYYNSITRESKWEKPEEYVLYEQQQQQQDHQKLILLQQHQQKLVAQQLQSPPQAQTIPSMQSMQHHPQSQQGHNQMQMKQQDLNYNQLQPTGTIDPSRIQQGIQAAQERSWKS
Test: ABA binding assay with purified recombinant ABAP1
Parameters: species or system barley
Conditions: analogs/precursors added at the same time as 3H+-ABA at different concentrations (20-5000)
property_measured: displacement of 3H+-ABA bound to ABAP1 (competition)

// solved cases for displacement of 3H+-ABA bound to ABAP1 (competition) follow
molecule="CC1=CC(=O)CC(C)(C)[C@@]1(O)/C=C/C(C)=C\\C=O [(+) ABA-aldehyde]" observed_result="able to displace"
molecule="CC1=CC(=O)CC(C)(C)[C@@]1(O)/C=C/C(C)=C\\C(=O)O[C@@H]1O[C@H](CO)[C@@H](O)[C@H](O)[C@H]1O [ABA-GE, (+) abscisic acid-glucose ester]" observed_result=incapability
molecule=CC(=C/C(=O)O)/C=C/[C@]1(O)[C@@]2(C)CO[C@]1(C)CC(=O)C2 observed_result=incapability
molecule="CC(=C/C(=O)O)/C=C/[C@]1(O)[C@@]2(C)CO[C@]1(C)C[C@@H](O)C2 [DPA, dihydrophaseic acid]" observed_result=incapability

Lab note: ABAP1 (Hordeum vulgare) assay, enter displacement of 3H+-ABA bound to ABAP1 (competition) for CC1=CC(=O)CC(C)(C)[C@@]1(O)/C=C/C(C)=C\CO [(+) ABA-alcohol] here
able to displace

The origin of these recorded values is patent US20080235828A1.
